Target: human ROCK-1 kinase domain (1 to 477 amino acids) (Homo sapiens, UniProt Q13464)
Construct: a vector that expresses the kinase domain (1 to 477 amino acids) of the ROCK-1 protein; His-Tag (6xHis)
Sequence (Q13464 1-477): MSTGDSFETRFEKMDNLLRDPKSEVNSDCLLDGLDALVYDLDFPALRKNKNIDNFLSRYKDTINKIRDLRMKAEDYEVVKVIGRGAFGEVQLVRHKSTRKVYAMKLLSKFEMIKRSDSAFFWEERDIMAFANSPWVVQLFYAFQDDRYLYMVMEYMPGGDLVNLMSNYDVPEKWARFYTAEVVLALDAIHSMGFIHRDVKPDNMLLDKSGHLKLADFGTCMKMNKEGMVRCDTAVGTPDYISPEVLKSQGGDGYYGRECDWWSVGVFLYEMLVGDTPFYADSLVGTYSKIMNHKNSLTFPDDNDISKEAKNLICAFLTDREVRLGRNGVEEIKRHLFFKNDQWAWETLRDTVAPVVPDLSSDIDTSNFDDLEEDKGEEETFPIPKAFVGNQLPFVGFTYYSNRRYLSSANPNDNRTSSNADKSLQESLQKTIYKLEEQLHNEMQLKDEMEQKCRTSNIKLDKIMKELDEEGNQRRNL
Test: Rho kinase inhibitory activity (inhibitory activity on human Rho kinase)
Conditions: recombinant His-tagged human ROCK-1 kinase domain, histone substrate, 1 μM [32P]ATP, room temperature 20 min
observable: pIC50
Note on units: pIC50 is unitless, being -log10 of a concentration expressed in mol/L.

The compound listed as N[C@H]1CCSc2cc(C(=O)Nc3ccncc3)ccc21 [Example 10] has a reported pIC50 of 7.89
